Read-out: Monokine induced gamma interferon (MIG), CXCL9 (gene 4283)
Experiment: BSK_hDFCGF_MIG: BioMAP Diversity Plus: hDFCGF Assay for Monokine induced gamma interferon (MIG) Biomarker Activity (AID 2283063)
Settings: primary human foreskin fibroblasts; actives raise or lower the signal
The source made the active and inactive calls. How the source made its calls: active means hit-call score of the fitted dose curve at least 0.9, where 1 is the maximum; inactive means score below 0.9.
Would you mind answering with one of these outcomes? label 1 = active, label 0 = inactive

Data request: Which outcome was entered for the molecule CN[C@H]1CC[C@@H](c2ccc(Cl)c(Cl)c2)c2ccc(S(N)(=O)=O)cc21 in this test?
Data returned: label 1

Data request: What outcome does the record of this test show for CC(CO)OC(C)CO (stereo unspecified) (tested in a mixture with another compound) ?
Data returned: label 0

Data request: In this assay, the call recorded for O=C(OCCCCCOC(=O)c1ccccc1)c1ccccc1 was what?
Data returned: label 0

Data request: Entry Cc1cccc(Nc2cc(Cl)nc(SCC(=O)O)n2)c1C : call = ?
Data returned: label 0

Data request: Recorded test outcome, item CCCCOC(=O)CCCCCCCCC(=O)OCCCC
Data returned: label 0

Data request: Recorded call for CC1(C)CC(N=C=O)CC(C)(CN=C=O)C1 (stereo unspecified) ?
Data returned: label 0

Data request: Can you look up the reported call for Nc1nc(N)c2nc(CNc3ccc(C(=O)N[C@@H](CCC(=O)O)C(=O)O)cc3)cnc2n1 for me?
Data returned: label 0

Data request: # fetch the recorded call for CN1CCN(Cc2cc(-c3ccc4[nH]c(=O)oc4c3)co2)[C@@H](c2ccc(F)cc2)C1 here
Data returned: label 0

Data request: Query: recorded result category for COCCOCCOC in this test
Data returned: label 0

Data request: # fetch the recorded call for FC(F)(F)C(F)(F)C(F)(F)C(F)(F)C(F)(F)C(F)(F)CCI here
Data returned: label 0

Data request: Name the outcome recorded for O=C(O)CCCCC(=O)O in the assay.
Data returned: label 0
